Answer each item with its documented pKd.
target: BG505.SOSIP.664.201C-433C HIV-1 Env ectodomain trimer; assay: SPR
One number for each entry, as −log10 of the molar value.

• PGT145 antibody (antibody, V domains shown) VH: QVQLVQSGAEVKKPGSSVKVSCKASGNSFSNHDVHWVRQATGQGLEWMGWMSHEGDKTGLAQKFQGRVTITRDSGASTVYMELRGLTADDTAIYYCLTGSKHRLRDYFLYNEYGPNYEEWGDYLATLDVWGHGTAVTVSS VL: EVVITQSPLFLPVTPGEAASLSCKCSHSLQHSTGANYLAWYLQRPGQTPRLLIHLATHRASGVPDRFSGSGSGTDFTLKISRVESDDVGTYYCMQGLHSPWTFGQGTKVEIK = 8.14

As a next step, examine the binder that follows.
[in] Entry PGT151 Fab (Fab, V domains shown) VH: RVQLVESGGGVVQPGKSVRLSCVVSDFPFSKYPMYWVRQAPGKGLEWVAAISGDAWHVVYSNSVQGRFLVSRDNVKNTLYLEMNSLKIEDTAVYRCARMFQESGPPRLDRWSGRNYYYYSGMDVWGQGTTVTVSS VL: DIVMTQTPLSLSVTPGQPASISCKSSESLRQSNGKTSLYWYRQKPGQSPQLLVFEVSNRFSGVSDRFVGSGSGTDFTLRISRVEAEDVGFYYCMQSKDFPLTFGGGTKVDLKR : reported pKd = ?
[out] 7.11

Reference source for all entries: patent US20230227512A1
